MEASUREMENT_CONTEXT: 298.15 K; 100 kPa; Liquid; Vibrating tube method
Reported mass density is given for each of the following molecules.
Give the value in kg/m3 but do not write kg/m3 after it.

Consider the reported mass density for these molecules:
{"SMILES_CODE": "CC[P+](CC)(CC)CCOC.O=S(=O)([N-]S(=O)(=O)C(F)(F)F)C(F)(F)F", "MEASURED_VALUE": 1378}
{"SMILES_CODE": "CCCCC[P+](CC)(CC)CC.O=S(=O)([N-]S(=O)(=O)C(F)(F)F)C(F)(F)F", "MEASURED_VALUE": 1304}
{"SMILES_CODE": "CCCC[N+]1(C)CCCCC1.O=S(=O)([N-]S(=O)(=O)C(F)(F)F)C(F)(F)F", "MEASURED_VALUE": 1382}

We now examine a further molecule.
What value of measured mass density is listed for CCCC[N+]1(C)CCCC1.O=S(=O)([N-]S(=O)(=O)C(F)(F)F)C(F)(F)F ?
1395
